Origin of measurements: ChEMBL document CHEMBL1157678

- Species on record: Rattus norvegicus
- Test: Inhibition of rat intestinal alpha-glucosidase at 100 ug/mL after 5 mins by spectrophotometry
Assay endpoint: inhibition

Consider the reported inhibition for these molecules:
CC(=O)c1cc2cc(-c3ccc(F)cc3)ccc2oc1=O 74.3%
CC(=O)c1cc2cc(-c3cncnc3)ccc2oc1=O 83.5%
COc1ccc(-c2ccc3oc(=O)c(C#N)c(C)c3c2)cn1 93.1%
Cc1c(O)ccc2c(CCl)cc(=O)oc12 72.7%
Cc1c(Cl)c(=O)oc2cc(O)ccc12 77.8%
CC(=O)c1cc2cc(-c3ccc(Cl)cc3)ccc2oc1=O 76.9%

Task: Which inhibition reading was recorded for the molecule CC(=O)c1cc2cc(-c3ccc(C)cc3)ccc2oc1=O ?
Output: 86.5%

Task: Name the recorded inhibition for O=C(c1ccccc1)c1cc2cc(Br)ccc2oc1=O .
Output: 18.1%

Task: Query: inhibition; subject: CC(=O)c1cc2cc(-c3ccc(N4CCOCC4)cc3)ccc2oc1=O
Output: 85.1%

Task: State the recorded inhibition for this entry: CCOC(=O)c1cc2cc(-c3ccccc3)ccc2oc1=O
Output: 77.1%

Task: Quick one: inhibition for CC(=O)c1cc2ccccc2oc1=O ?
Output: 53.2%
